# target.system: F508delCFTR (Homo sapiens, UniProt P13569, DEL508-508)
# Construct: expressed in transfected cells; host or cells: CFBE41o- human lung-derived epithelial cells (CFBE4lo-F508delCFTR-HRP), doxycycline-inducible
# Sequence (P13569 with tags, fused parts or gaps DEL508-508): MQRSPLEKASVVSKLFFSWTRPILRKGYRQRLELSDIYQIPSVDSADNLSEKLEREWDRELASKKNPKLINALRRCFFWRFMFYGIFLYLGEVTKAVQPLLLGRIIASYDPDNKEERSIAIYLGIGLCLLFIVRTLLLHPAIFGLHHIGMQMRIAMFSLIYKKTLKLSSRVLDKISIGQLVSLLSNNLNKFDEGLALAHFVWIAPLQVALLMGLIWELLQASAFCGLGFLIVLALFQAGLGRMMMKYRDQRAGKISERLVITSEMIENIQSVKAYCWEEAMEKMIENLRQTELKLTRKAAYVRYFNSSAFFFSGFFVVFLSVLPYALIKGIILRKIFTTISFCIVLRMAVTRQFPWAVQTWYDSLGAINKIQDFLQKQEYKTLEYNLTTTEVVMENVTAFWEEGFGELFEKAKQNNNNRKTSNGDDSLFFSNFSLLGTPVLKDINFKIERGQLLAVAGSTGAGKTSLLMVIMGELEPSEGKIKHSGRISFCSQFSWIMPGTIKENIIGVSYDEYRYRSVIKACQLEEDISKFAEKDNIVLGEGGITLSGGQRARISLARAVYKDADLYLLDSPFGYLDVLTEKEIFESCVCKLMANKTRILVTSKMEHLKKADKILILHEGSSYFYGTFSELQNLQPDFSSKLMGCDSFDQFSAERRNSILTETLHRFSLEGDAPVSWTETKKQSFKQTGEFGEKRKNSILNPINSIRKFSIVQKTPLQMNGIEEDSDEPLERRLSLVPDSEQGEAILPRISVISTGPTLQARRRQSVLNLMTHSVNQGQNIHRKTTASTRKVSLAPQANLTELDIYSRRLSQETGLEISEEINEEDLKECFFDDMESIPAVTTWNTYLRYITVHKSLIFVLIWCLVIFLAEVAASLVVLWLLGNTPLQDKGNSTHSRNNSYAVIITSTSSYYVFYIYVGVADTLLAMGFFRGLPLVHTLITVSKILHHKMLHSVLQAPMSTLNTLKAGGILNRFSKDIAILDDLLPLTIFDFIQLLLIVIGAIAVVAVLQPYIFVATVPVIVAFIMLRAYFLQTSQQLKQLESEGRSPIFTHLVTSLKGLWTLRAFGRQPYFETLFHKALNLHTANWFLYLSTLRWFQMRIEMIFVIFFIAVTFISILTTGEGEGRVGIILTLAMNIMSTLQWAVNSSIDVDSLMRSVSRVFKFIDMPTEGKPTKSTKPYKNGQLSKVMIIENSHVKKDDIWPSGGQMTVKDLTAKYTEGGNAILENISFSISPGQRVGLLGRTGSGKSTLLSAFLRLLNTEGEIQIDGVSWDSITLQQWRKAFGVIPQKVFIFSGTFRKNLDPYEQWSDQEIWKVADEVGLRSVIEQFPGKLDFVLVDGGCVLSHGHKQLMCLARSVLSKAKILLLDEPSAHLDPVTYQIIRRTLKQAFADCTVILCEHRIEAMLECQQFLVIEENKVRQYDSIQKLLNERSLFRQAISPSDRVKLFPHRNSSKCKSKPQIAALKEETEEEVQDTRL
# procedure.details: Cell Surface Expression-Horse Radish Peroxidase (CSE-HRP) Assay;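 note: percent of the 2 µM on-plate positive control corrector response above DMSO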
# Format: cell-based
# condition.summary: CSE-HRP; without co-corrector; maximum at any tested concentration, normalized to on-plate positive control; read-out: Maximum % activity (without co-corrector)

- molecule: "COc1ccc(C(C)(C)C)cc1CN[C@H]1[C@H](C(C)(C)C)[C@@H](C(=O)O)N(C(=O)[C@@H]2OCC[C@@H]2C)[C@H]1c1ccccc1 (relative stereo) [II-268]"
  target.system: "F508delCFTR (Homo sapiens, UniProt P13569, DEL508-508)"
  Emax: "> 200%"
- molecule: "COc1cc(C(F)(F)F)ccc1CN[C@H]1[C@H](C(C)(C)C)[C@@H](C(=O)O)N(C(=O)OC(C)C)[C@H]1c1cccnc1N1CCC1 [Example I-275]"
  target.system: "F508delCFTR (Homo sapiens, UniProt P13569, DEL508-508)"
  Emax: "> 200%"
- molecule: "COc1ccc(C(C)(C)C)cc1CN[C@H]1[C@H](C(C)(C)C)[C@@H](C(=O)O)N(C(=O)Cc2ccccc2C)[C@H]1c1ccccc1 [II-205]"
  target.system: "F508delCFTR (Homo sapiens, UniProt P13569, DEL508-508)"
  Emax: "> 200%"
- molecule: "COc1ccc(C(F)(F)F)cc1CN[C@H]1[C@H](C(C)(C)C)[C@@H](C(=O)O)N(C(=O)C2CCCO2)[C@H]1c1ccccc1 (mixture of isomers) [II-59]"
  target.system: "F508delCFTR (Homo sapiens, UniProt P13569, DEL508-508)"
  Emax: "100 to 200%"
- molecule: "COc1ccc(C(C)(C)C)cc1CN[C@H]1[C@H](C(C)(C)C)[C@@H](C(=O)O)N(S(=O)(=O)c2ccn(C)n2)[C@H]1c1ccccc1 [II-154]"
  target.system: "F508delCFTR (Homo sapiens, UniProt P13569, DEL508-508)"
  Emax: "100 to 200%"
- molecule: "COc1ccc(C(C)(C)C)cc1CN[C@H]1[C@H](C(C)(C)C)[C@@H](C(=O)O)N(C(=O)Cc2cccc(F)c2)[C@H]1c1ccccc1 [II-199]"
  target.system: "F508delCFTR (Homo sapiens, UniProt P13569, DEL508-508)"
  Emax: "> 200%"
- molecule: "COc1ccc(C(C)(C)C)cc1CN[C@H]1[C@H](C(C)(C)C)[C@@H](C(=O)O)N(C(=O)c2cnn(-c3ccccc3C)c2C)[C@H]1c1ccccc1 [II-228]"
  target.system: "F508delCFTR (Homo sapiens, UniProt P13569, DEL508-508)"
  Emax: "> 200%"
- molecule: "COc1ccc(C(F)(F)F)cc1CN[C@H]1[C@H](C(C)(C)C)[C@@H](C(=O)O)N(C(=O)C2CCCC(F)(F)C2)[C@H]1c1cccnc1OC (relative stereo) [Example I-256]"
  target.system: "F508delCFTR (Homo sapiens, UniProt P13569, DEL508-508)"
  Emax: "> 200%"
- molecule: "COc1cc(C(F)(F)F)ccc1CN[C@H]1[C@H](C(C)(C)C)[C@@H](C(=O)O)N(C(=O)[C@H](OC)c2ccccc2)[C@H]1c1cccnc1N(C)C [II-87]"
  target.system: "F508delCFTR (Homo sapiens, UniProt P13569, DEL508-508)"
  Emax: "100 to 200%"
- molecule: "COc1ccc(C(F)(F)F)cc1CN[C@@H]1[C@@H](C(C)(C)C)[C@H](C(=O)O)N(C(=O)[C@@H]2CCCO[C@@H]2C)[C@@H]1c1ccccc1 (racemic) [II-34]"
  target.system: "F508delCFTR (Homo sapiens, UniProt P13569, DEL508-508)"
  Emax: "> 200%"
- molecule: "COCc1ccc(OC)c(CN[C@H]2[C@H](C(C)(C)C)[C@@H](C(=O)O)N(C(=O)C3CCCCC3)[C@H]2c2ccccc2)c1 [II-242]"
  target.system: "F508delCFTR (Homo sapiens, UniProt P13569, DEL508-508)"
  Emax: "100 to 200%"
- molecule: "COc1ccc(C(C)(C)C)cc1CN[C@H]1[C@H](C(C)(C)C)[C@@H](C(=O)O)N(C(=O)C2CC(C)C2)[C@H]1c1ccccc1 (stereo partly drawn) [II-306]"
  target.system: "F508delCFTR (Homo sapiens, UniProt P13569, DEL508-508)"
  Emax: "> 200%"

Source of measurements: patent US20180099931A1
